Taken from patent US10925969B2.

# Tested on: H929 cells
# assay.method.text: In vitro sensitivity to abraxane and bortezumib
# Assay type: cell-based
# condition.notes: Homo sapiens, NCI-H929
observation.type: pIC50
In textbook form, pIC50 equals minus log to base ten of the concentration in mol/L.

Per the record, CC(C)C[C@H](NC(=O)[C@H](Cc1ccccc1)NC(=O)c1cnccn1)B(O)O has pIC50 of 8.40
